Test: qHTS of pediatric cancer cell lines to identify multiple opportunities for drug repurposing: Confirmatory screen for SJ-GBM2 cells (AID 1347116);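 further: 48 hour compound exposure; nearly all actives have a fitted effect of over 60% in size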
Conditions: SJ-GBM2 glioblastoma cells, viability; series mostly up to 45.9 µM
Records with an inconclusive call do not appear. Activity calls are given as the source filed them. The call rests on the fitted dose curve; in most records, active means well fitted cell-killing curve with a large enough effect; inconclusive means small, poorly fitted or top-dose-only effect, or effect the other way; inactive means no such curve, though single readings can be large or run the other way.
Pick one: Y for active, N for inactive

NC(=O)c1cccc2cn(-c3ccc([C@@H]4CCCNC4)cc3)nc12; N
Cn1c(=O)n(-c2ccc(C(C)(C)C#N)cc2)c2c3cc(-c4cnc5ccccc5c4)ccc3ncc21; Y

IN: Could you please tell me the result logged for Nc1ccccc1NC(=O)c1ccc(CNC(=O)OCc2cccnc2)cc1 in this assay?
OUT: Y

IN: Continue with COc1ccc(-c2cc3c(C)nc(N)nc3n(C3CCC(OCCO)CC3)c2=O)cn1 (stereo not drawn)
OUT: N

IN: Continue with CC(C)C[C@H](NC(=O)CNC(=O)c1cc(Cl)ccc1Cl)B(O)O
OUT: Y

IN: Continue with CCn1cc(-c2ccnc3[nH]c(-c4cccc(CN(C)C)c4)cc23)c(-c2ccc(NC(=O)N(C)C)cc2)n1
OUT: Y

---

Test: qHTS to identify inhibitors of the type 1 interferon - major histocompatibility complex class I in skeletal muscle: primary screen against the NCATS Mechanism Interrogation Plate v5.0 (MIPE) Libary (AID 1347411); further: nearly all actives have a fitted effect of over 65% in size
Conditions: iHSKM cells + IFN-b, HiBiT-tagged MHC-I luminescence, 24 h; series mostly up to 45.8 µM
Results filed as inconclusive are left out. Active and inactive are the calls of the source. The call rests on the fitted dose curve; in most records, active means well fitted inhibition curve with a large enough effect; inconclusive means small, poorly fitted or top-dose-only effect; inactive means no such curve, though single readings can be large or run the other way.
Pick one: Yes (active), No (inactive)

CC(=O)OCC(=O)[C@@]1(O)[C@H](C)C[C@H]2[C@@H]3C=C(C)C4=Cc5c(cnn5-c5ccccc5)C[C@]4(C)[C@@H]3[C@@H](O)C[C@@]21C; No

IN: Could you please tell me the result logged for c1nc2nc(Nc3ccc(N4CCOCC4)cc3)nc(NC3CCCCC3)c2[nH]1 in this assay?
OUT: Yes

IN: Continue with O=C(NC1CCNCC1)c1[nH]ncc1NC(=O)c1c(Cl)cccc1Cl
OUT: Yes

---

# Potency per entry
Assay: Quantitative High-Throughput drug screen in 47 multiple myeloma cell lines against the NCATS MIPE library collection: Karpas25_ECACC cell viability assay (AID 1918968; further: potency means the concentration at half of the fitted maximal effect; nearly all actives have a fitted effect of over 35% in size)
Details: Karpas25 myeloma viability, CellTiter-Glo ATP, 48 h; series mostly up to 45.8 µM
Inconclusive results are not listed. Calls of active or inactive are those of the source. The call rests on the fitted dose curve; in most records, active means well fitted cell-killing curve with a large enough effect; inconclusive means small, poorly fitted or top-dose-only effect, or effect the other way; inactive means no such curve, though single readings can be large or run the other way.

Before answering, review these 3 worked examples.
O=C(O)c1ccc2c(c1)nc(Nc1cccc(Cl)c1)c1ccncc12; 2.64 µM (active)
CCNC(=O)Nc1ccc2ncc(Nc3ccc(C)cc3)nc2n1; 5.9 µM (active)
COc1cc(C(C)C)c2c(c1)S(=O)(=O)N(COc1cc(=O)n3cccc(OCCN4CCCCC4)c3n1)C2=O; 13.2 µM (active)

# next molecule below
IN: Data request, read-out Potency, for CCS(=O)(=O)c1cccc(-c2cc(C(=O)NC3CCN(C)CC3)c(C)c3[nH]c4ncc(C)cc4c23)c1
OUT: 1.18 µM (active)

---

Experiment: Quantitative High-Throughput drug screen in 47 multiple myeloma cell lines against the NCATS MIPE library collection: JIM3_ECACC cell viability assay (AID 1918963; further: nearly all actives have a fitted effect of over 35% in size; further: potency means the concentration at half of the fitted maximal effect)
Conditions: JIM3 myeloma viability, CellTiter-Glo ATP, 48 h; series mostly up to 45.8 µM
Records with an inconclusive call do not appear. Active and inactive are the calls of the source. Calls follow the shape of the dose curve; as a rule, active = well fitted cell-killing curve with a large enough effect; inconclusive = small, poorly fitted or top-dose-only effect; inactive = no such curve, though single readings can be large or run the other way.
PROPERTY_NAME: Potency

Before answering, review these 5 worked examples.
COC(=O)Nc1ccc(-c2nc(N3CCOCC3)c3cnn(C4CCN(Cc5cccnc5)CC4)c3n2)cc1; 1.18 µM (active)
CC(C)c1ccc(Cn2ccc3c4c(N)nc(NC5CC5)nc4ccc32)cc1; 0.148 µM (active)
O=C(NCCS(=O)(=O)c1ccc(C(F)(F)F)cn1)c1ccc(Cl)cc1; inactive
COc1cccc(Nc2c(C(N)=O)cnc3c(C)cc(S(=O)(=O)c4cccc(C(=O)N(C)C)c4)cc23)c1; inactive
NC(=O)Nc1cc(-c2cccc(F)c2)sc1C(=O)N[C@H]1CCCNC1; 0.469 µM (active)

IN: Data request, read-out Potency, for Cc1c(NC(=O)OC[C@@H]2COCCN2)cn2ncnc(Nc3ccc4c(cnn4Cc4cccc(F)c4)c3)c12
OUT: 1.32 µM (active)

IN: Continue with Cc1cc(Nc2cc(N3CCN(C)CC3)nc(C=Cc3ccccc3)n2)n[nH]1
OUT: 7.62 µM (active)

IN: Continue with Cc1nc2cnc3ccc(C#Cc4cccnc4)cc3c2n1-c1ccc(C(C)(C)C#N)cc1
OUT: 0.148 µM (active)

IN: Continue with Clc1ccc2ncc(-c3cccc(NC4CNC4)n3)n2c1
OUT: 14.8 µM (active)

IN: Continue with COc1cccc(-c2ccc(NC(=O)C3=C(C(=O)O)CCC3)c(F)c2)c1
OUT: 23.5 µM (active)

IN: Continue with Cc1nc2ccc(CN(C)c3ccc(C(=O)N[C@@H](CCC(=O)O)C(=O)O)s3)cc2c(=O)[nH]1
OUT: 0.0935 µM (active)
